B1: Hairpin Ribozyme (parent)
chain: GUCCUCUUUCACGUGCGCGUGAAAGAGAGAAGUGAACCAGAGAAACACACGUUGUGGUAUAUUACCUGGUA

# Variants of: B1
# method.summary: self-cleavage, relative activity (ratio to wild type); higher = more cleavage; co-transcriptional
assay.readout: self-cleavage
Would you mind answering with just the numeric figure?

GUCCUCUUUCACGUGCGCGUGAAGGAGAGAAGCGAACCAGAGAAACACACGUUGUGGUAUAUUACCUGGUA [A24G U33C]; 0.125
GUCCUCUUUCACGUGCGCGUGAAAGAGAGAAGUGAACCAGAGAAACACACGUGGUAGUAUAUUACCUGGUA [U53G G56A]; 0.195
GUCCUCUUUCACGUGCGCGUGAAAGAGAGAAGUGAACCAGAGCAACACACGUUGUGGUAUAUCACCUGGUA [A43C U63C]; 0.157
GUCCGCUUUCACGUGCGUGUGAAAGAGAGAAGUGAACCAGAGAAACACACGUUGUGGUAUAUUACCUGGUA [U5G C18U]; 0.243
GUCAUCUUUCACGUGCGCGUGAAAGAGAGAAGUGAACCAAAGAAACACACGUUGUGGUAUAUUACCUGGUA [C4A G40A]; 0.133

Specify measured self-cleavage for GUCCGCUUUCACGUGCGCGUGAAAGAGAGAAGUGAACCAGAGAAACACACGUUGUGGUAUAUUACCUUGUA [U5G G68U] .
0.156

Please report the measured self-cleavage for GUCCUCUUUCACGUGAGCGUGAAAGAGAGAAGUGAACCAGAGAAACACACGUUGUGUUAUAUUACCUGGUA [C16A G57U]
0.242

Please give the documented self-cleavage of GUCCUCUUUCACGUGCGGGUGAAAGAGAGAAGUGAACCAGAGAAACAGACGUUGUGGUAUAUUACCUGGUA [C18G C48G]
0.138

Using known records, supply self-cleavage for GUCCUCUUUCACGUGCGCGUGAAAGAGAGAAGUGAACCACACAAACACACGUUGUGGUAUAUUACCUGGUA [G40C G42C]
0.107

Give self-cleavage for the following variant: GUCCGCUUUCACGUGCGCGUGAAAGAGAGAAGUGAACCAGAGAAACACACGUUGUGCUAUAUUACCUGGUA [U5G G57C]
0.0591

For the variant GUCCUCUUUCACGUGCGCGUGAAACAGAGAAGUGAACCAUAGAAACACACGUUGUGGUAUAUUACCUGGUA [G25C G40U] , give its measured self-cleavage value.
0.12

Note down self-cleavage recorded for GUCCUCUUUCACGUGCGCGUGAAAGAGAGAAGUGAACUAGAGAAACACACGUUGUGGUACAUUACCUGGUA [C38U U60C]
0.759
